The following compounds have recorded GI50 on HCT-15.

The following compounds have reported results that may help.
>  <compound>
C[P+](C)(CC(F)(F)F)c1ccccc1

>  <GI50>
> 100 µM

$$$$
>  <compound>
CC(=O)OCC1OC(NC(=S)Nn2c(=O)[nH]c3ccccc3c2=O)C(OC(C)=O)C(OC(C)=O)C1OC(C)=O (stereo unspecified)

>  <GI50>
> 100 µM

$$$$
>  <compound>
NS(=O)(=O)c1ccc(NNc2c3ccccc3nc3c(C(=O)Nc4ccc(S(N)(=O)=O)cc4)cccc23)cc1

>  <GI50>
> 100 µM

$$$$
>  <compound>
CCOC(=O)C1(N)CCc2[nH][nH]c(=O)c2C1 (stereo unspecified)

>  <GI50>
> 100 µM

$$$$
>  <compound>
NCc1ccc(-c2ccc(-c3ccc(-c4ccc(CN)s4)s3)s2)s1

>  <GI50>
> 100 µM

$$$$
>  <compound>
C/C(=N/O)c1cccc(Nc2nc3ccccc3c3[nH]c4ccccc4c23)c1

>  <GI50>
2.36 µM

$$$$
>  <compound>
S=C1C=C(c2ccccc2)Sc2ccccc2N1

>  <GI50>
> 100 µM

$$$$
>  <compound>
Cc1cccc(NC(=O)C(=O)C(C(=O)c2ccccc2F)C2OC(=O)c3ccccc32)c1Cl (stereo unspecified)

>  <GI50>
22.4 µM

$$$$

Which GI50 is reported for this compound? CC1(CO)OC(n2cnc3cncnc32)CC1O (stereo unspecified)
> 100 µM

Which GI50 value is on record for CC(C)COC(=O)N1N=NC2C3CC(=O)C(O3)C21 (stereo unspecified) ?
> 100 µM

GI50 lookup needed for CCc1cccc(CC)c1NC1=CC(=O)C(=O)c2ccccc21 , thanks.
10.3 µM
